# studyTarget: GTPase KRas [G12D]/RAF proto-oncogene serine/threonine-protein kinase (Homo sapiens, UniProt P01116+P04049, G12D)
# assayComment: KRAS G12D/cRAF Binding Assay
# Text: […]
pIC50: −log10 of the molar value.
measuredAttribute: pIC50

Worked set:
Data point: "C#Cc1c(F)ccc2cc(O)cc(-c3nc(C#CCC)c4c(N5CC6CCC(C6)C5)nc(OC[C@@]56CCCN5C[C@H](F)C6)nc4c3F)c12" ; pIC50 = 7.87

According to the records, this compound "C#Cc1c(F)ccc2cc(O)cc(-c3nc(C#C)c4c(N5CC6CC(C6)C5)nc(OC[C@@]56CCCN5C[C@H](F)C6)nc4c3F)c12" displays pIC50 of 7.66

I. C#Cc1c(F)ccc2cc(O)cc(-c3nc(C#CCCC(C)C)c4c(N5CC6CCC(C6)C5)nc(OC[C@@]56CCCN5C[C@H](F)C6)nc4c3F)c12
II. C#Cc1c(F)ccc2cc(O)cc(-c3nc(C#C)c4c(N5CCC[C@@H](C)C5)nc(OC[C@@]56CCCN5C[C@H](F)C6)nc4c3F)c12
Query: // returns I or II , whichever has the lower pIC50 State the label of the item chosen.
Reply: II
